# System under test: HLA-A2 on T2 cells without added peptide (human)
# Assay text: flow cytometry, T2 cells without peptide, antibody 10 µg/mL
Readout kind: Percentage of Positive Cells (%)
Report the figure in % without appending any unit label.

Example binders with recorded Percentage of Positive Cells (%):
3A6-IgG1-SI (antibody, V domains shown) VH: QVQLQESGPGMVKPSETLSLTCTVSGGSISYNYWSWIRQPPGKGLEWIGYIYHSGTTKYNPSLKSRVTMSVDTSKNHFSLKLNSVTAADTAVYYCARHEDYWFFDLWGRGTLVTVSS VL: DIQMTQSPSSLSASVGDRVTITCRASQGISNYLVWFQQKPGKAPKSLIYAASILQSGVPSKFSGSGSGTDFTLTINSLQPEDFATYYCQQYNTYPFTFGPGTKVDIK ... 5.77
P01264-IgG1-SI (antibody, V domains shown) VH: EVQLVESGGGLVKPGGSLRLSCAASGFTFSNAWMNWVRQAPGKGLEWVGRIKSKTDGGTTDYAAPVKGRFTISRHDSKNTLYLQMNSLKTEDTAVYYCATDPRIAVTGTDYYYGMDVWGQGTTVTVSS VL: DIVMTQTPSFLSASVGDRVTITCRASQDISNYLNWYQQKPGKAPKLLIYDASNLETGVPSRFSGSGSGTDFTFTISSLQPEDIATYYCQQYDNLPITFGQGTRLEIK ... 4.65

Query string: Which measured Percentage of Positive Cells (%) value corresponds to 4F10-IgG1-SI (antibody, V domains shown) VH: QVQLQESGPGLVKPSETLSLTCTVSGGSISNYYWSWIRQPPGKGLEWIGYIYYSGSTNYNPSLKSRVNISVDTSKSQVSLKLNSVIAADTAVYYCARHEDYWYFDLWGRGTLVTVSS VL: DIQLTQSPSSLSASIRDRVTITCRASQDINNYLAWFQQKPGKAPKSLIYAVSSLESGVPSKFSGSGSGTDFTLTISSLQPEDFATYFCQQYNSYPFTFGPGTKVEIK ?
Result string: 7.67
